The measurements presented in this section are drawn from patent US9101613B2.

# system.under.test: 5-HT1B receptor (Homo sapiens)
# Construct: expressed in transfected cells; host or cells: CHO-K1
# Sequence (P28222 whole entry): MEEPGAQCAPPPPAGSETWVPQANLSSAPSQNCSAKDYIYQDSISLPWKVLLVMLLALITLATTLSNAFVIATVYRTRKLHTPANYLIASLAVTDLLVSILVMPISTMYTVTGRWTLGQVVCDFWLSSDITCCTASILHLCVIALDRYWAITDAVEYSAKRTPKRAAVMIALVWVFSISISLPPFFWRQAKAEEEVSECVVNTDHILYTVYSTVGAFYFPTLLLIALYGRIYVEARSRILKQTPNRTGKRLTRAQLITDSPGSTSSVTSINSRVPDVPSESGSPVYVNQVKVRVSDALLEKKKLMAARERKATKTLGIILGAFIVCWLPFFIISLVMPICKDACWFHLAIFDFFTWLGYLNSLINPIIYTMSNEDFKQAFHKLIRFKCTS
# protocol.text: Serotonin receptor binding, [125I] Cyanopindolol, CHO-K1 membranes
# condition.parameters: read-out: 5-HT1B IC50
Collected IC50 values appear next to each entry.

| record.smiles | unit.tag | IC50 |
| --- | --- | --- |
| COc1ccc2[nH]cc(CCNC(=O)c3cc(=O)c(OC)co3)c2c1 | µM | 5.44 |
| COc1ccc2[nH]cc(CCNC(=O)c3cc(=O)cco3)c2c1 | µM | 2.14 |
| COc1ccc2[nH]cc(CCNC(=O)c3ccc(=O)oc3)c2c1 | µM | 1.64 |

* * *

# system.under.test: 5-HT2C receptor (Homo sapiens, UniProt P28335)
# Construct: expressed in transfected cells; host or cells: CHO-K1
# Sequence (P28335 33-458): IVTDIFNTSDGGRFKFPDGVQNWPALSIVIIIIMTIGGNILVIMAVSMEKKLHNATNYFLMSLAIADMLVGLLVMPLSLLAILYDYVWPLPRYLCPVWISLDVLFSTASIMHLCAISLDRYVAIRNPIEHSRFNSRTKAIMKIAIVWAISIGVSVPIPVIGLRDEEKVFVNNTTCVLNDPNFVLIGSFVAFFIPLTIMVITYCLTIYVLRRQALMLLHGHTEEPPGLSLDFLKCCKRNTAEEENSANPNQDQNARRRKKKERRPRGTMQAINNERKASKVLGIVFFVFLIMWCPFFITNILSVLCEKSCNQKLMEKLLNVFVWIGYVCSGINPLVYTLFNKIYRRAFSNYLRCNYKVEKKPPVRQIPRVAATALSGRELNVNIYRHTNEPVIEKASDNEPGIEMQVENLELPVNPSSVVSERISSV
# protocol.text: Serotonin receptor binding, [3H] Mesulergine, CHO-K1 membranes

| record.smiles | Ki (µM) |
| --- | --- |
| COc1ccc2[nH]cc(CCNC(=O)c3cc(=O)c(O)co3)c2c1 | 3.8 |

* * *

# system.under.test: MT-2 receptor (Homo sapiens)
# Construct: expressed in transfected cells; host or cells: CHP-K1 (Chinese hamster ovary) cells (so in the source)
# Sequence (P49286 1-362): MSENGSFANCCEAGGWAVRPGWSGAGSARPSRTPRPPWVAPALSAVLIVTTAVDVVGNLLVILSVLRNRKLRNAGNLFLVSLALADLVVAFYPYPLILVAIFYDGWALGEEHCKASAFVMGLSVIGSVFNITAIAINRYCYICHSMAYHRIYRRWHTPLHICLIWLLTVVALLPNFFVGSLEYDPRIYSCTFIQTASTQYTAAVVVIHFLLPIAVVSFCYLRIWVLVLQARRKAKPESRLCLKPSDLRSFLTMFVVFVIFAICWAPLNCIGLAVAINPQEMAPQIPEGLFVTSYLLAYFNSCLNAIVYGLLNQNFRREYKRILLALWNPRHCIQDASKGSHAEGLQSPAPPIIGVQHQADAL
# protocol.text: 125I-melatonin binding in membranes of CHP-K1 cells, MT-2
# condition.parameters: 10 μM; 0.05 nM 125I-melatonin; read-out: MT-2 receptor binding % inhibition by 10 μM
reported.metric: inhibition at 10 µM

| record.smiles | reading |
| --- | --- |
| COc1ccc2[nH]cc(CCNC(=O)c3cccc(=O)o3)c2c1 | 65% |
| COc1ccc2[nH]cc(CCNC(=O)c3cc(=O)cco3)c2c1 | 100% |
| COc1ccc2[nH]c(Br)c(CCNC(=O)c3ccc(=O)oc3)c2c1 | 89% |

* * *

Collected IC50 values appear next to each entry.
# system.under.test: MT-2 receptor (Homo sapiens, UniProt P49286)
# Construct: expressed in transfected cells; host or cells: CHP-K1 (Chinese hamster ovary) cells (so in the source)
# Sequence (P49286 1-362): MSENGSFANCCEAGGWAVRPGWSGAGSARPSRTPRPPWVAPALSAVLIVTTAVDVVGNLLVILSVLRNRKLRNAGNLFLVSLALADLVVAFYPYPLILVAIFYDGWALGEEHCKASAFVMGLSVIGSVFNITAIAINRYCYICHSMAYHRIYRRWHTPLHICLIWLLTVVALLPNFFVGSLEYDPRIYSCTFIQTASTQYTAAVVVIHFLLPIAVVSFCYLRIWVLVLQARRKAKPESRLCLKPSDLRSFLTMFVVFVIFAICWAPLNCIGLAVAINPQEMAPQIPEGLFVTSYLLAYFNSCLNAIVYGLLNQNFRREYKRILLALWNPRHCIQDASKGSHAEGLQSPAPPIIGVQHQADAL
# protocol.text: 125I-melatonin binding in membranes of CHP-K1 cells, MT-2
# condition.parameters: 0.05 nM 125I-melatonin, 25° C., 4 hours; read-out: MT-2 receptor binding IC50
reported.metric: IC50 (nM)

| record.smiles | unit.tag | reading |
| --- | --- | --- |
| COc1ccc2[nH]cc(CCOC(=O)c3cc(=O)c(O)co3)c2c1 | nM | 1640 |
| COc1ccc2[nH]c(Br)c(CCNC(=O)c3ccc(=O)oc3)c2c1 | nM | 850 |
| COc1ccc2[nH]cc(CCNC(=O)c3cc(=O)cco3)c2c1 | nM | 65 |
| COc1ccc2[nH]cc(CCNC(=O)c3cc(=O)cc(C(=O)O)o3)c2c1 | nM | 1760 |
| COc1ccc2[nH]cc(CCNC(=O)c3cc(=O)c(OC)co3)c2c1 | nM | 826 |
